# systemUnderTest: Serine/threonine-protein kinase Nek3 (Homo sapiens, UniProt P51956); note: in the data inactive means no Kd found up to 30 µM
# Sequence (P51956 whole entry): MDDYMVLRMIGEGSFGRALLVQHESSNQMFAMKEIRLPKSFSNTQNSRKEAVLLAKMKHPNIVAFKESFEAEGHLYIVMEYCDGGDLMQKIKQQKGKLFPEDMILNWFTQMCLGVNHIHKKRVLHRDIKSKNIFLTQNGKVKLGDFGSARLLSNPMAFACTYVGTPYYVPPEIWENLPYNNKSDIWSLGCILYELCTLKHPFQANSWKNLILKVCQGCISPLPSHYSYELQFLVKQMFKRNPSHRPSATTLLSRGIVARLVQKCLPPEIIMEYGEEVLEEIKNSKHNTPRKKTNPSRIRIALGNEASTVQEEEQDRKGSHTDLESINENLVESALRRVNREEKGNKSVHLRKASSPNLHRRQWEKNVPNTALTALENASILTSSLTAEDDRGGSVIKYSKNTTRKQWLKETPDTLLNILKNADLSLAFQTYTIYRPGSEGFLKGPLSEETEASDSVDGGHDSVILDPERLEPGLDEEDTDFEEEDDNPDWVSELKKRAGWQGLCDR
Structures can show the parent of a compound that is named as a salt. Calls of active or inactive are those of the source.
Labels: Yes for active, No for inactive

>  <compound>
NC1(c2ccc(-c3nc4ccn5c(=O)[nH]nc5c4cc3-c3ccccc3)cc2)CCC1

>  <class>
No

$$$$
>  <compound>
CCS(=O)(=O)N1CCN(c2ccc(Nc3ncc(C(N)=O)c(NC4CC4)n3)cc2)CC1 [Cerdulatinib Hydrochloride]

>  <class>
Yes

$$$$
>  <compound>
COc1c(OCCCN2CCOCC2)ccc2c1N=C(NC(=O)c1cnc(N)nc1)N1CCN=C21

>  <class>
No

$$$$
>  <compound>
CO[C@H]1C[C@@H]2CC[C@@H](C)[C@@](O)(O2)C(=O)C(=O)N2CCCC[C@H]2C(=O)O[C@H]([C@H](C)C[C@@H]2CC[C@@H](OP(C)(C)=O)[C@H](OC)C2)CC(=O)[C@H](C)/C=C(\C)[C@@H](O)[C@@H](OC)C(=O)[C@H](C)C[C@H](C)/C=C/C=C/C=C/1C

>  <class>
No

$$$$
>  <compound>
CCOc1cc2ncc(C#N)c(Nc3ccc(F)c(Cl)c3)c2cc1NC(=O)/C=C/CN(C)C

>  <class>
No

$$$$
>  <compound>
O=c1[nH]ccc2cc(OC3CCNCC3)ccc12 [SAR-407899 FREE BASE]

>  <class>
No

$$$$
>  <compound>
CNC(=O)c1cc(Oc2ccc(NC(=O)Nc3cc(C(C)(C)C)nn3-c3ccc4ncccc4c3)c(F)c2)ccn1

>  <class>
No

$$$$

---

# systemUnderTest: UniProtKB Q8TBX8
# Sequence (Q8TBX8 whole entry): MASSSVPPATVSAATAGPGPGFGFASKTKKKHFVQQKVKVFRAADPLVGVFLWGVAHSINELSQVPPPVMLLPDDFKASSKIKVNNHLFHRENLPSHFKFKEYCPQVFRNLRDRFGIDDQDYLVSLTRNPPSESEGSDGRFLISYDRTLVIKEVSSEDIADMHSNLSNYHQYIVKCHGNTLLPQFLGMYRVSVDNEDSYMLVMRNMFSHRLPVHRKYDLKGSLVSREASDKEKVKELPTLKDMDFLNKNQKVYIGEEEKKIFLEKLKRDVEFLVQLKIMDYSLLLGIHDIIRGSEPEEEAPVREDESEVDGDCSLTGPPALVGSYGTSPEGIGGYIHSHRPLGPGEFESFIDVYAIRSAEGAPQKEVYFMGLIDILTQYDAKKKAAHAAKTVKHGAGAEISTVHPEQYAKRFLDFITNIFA
Active and inactive are the calls of the source.

>  <compound>
COc1cc2ncnc(Oc3cccc(NC(=O)Nc4cc(C(C)(C)C(F)(F)F)on4)c3)c2cc1OC [CEP-32496]

>  <Kd>
> 30 µM (inactive)

$$$$
>  <compound>
CNC(=O)c1cc(Oc2ccc(NC(=O)Nc3cc(C(C)(C)C)nn3-c3ccc4ncccc4c3)c(F)c2)ccn1 [REBASTINIB]

>  <Kd>
> 30 µM (inactive)

$$$$
>  <compound>
COCc1c(-c2ccc(NC(=O)Nc3cc(C(F)(F)F)ccc3F)c(F)c2)c2c(N)ncnn2c1CN1CCOCC1

>  <Kd>
> 30 µM (inactive)

$$$$
>  <compound>
Cn1ncc(Cl)c1-c1cc(C(=O)N[C@H](CN)Cc2ccc(F)c(F)c2)oc1Cl [UPROSERTIB]

>  <Kd>
> 30 µM (inactive)

$$$$
>  <compound>
O=C(Nc1nc2cccc(-c3ccc(CN4CCS(=O)(=O)CC4)cc3)n2n1)C1CC1 [FILGOTINIB]

>  <Kd>
> 30 µM (inactive)

$$$$
>  <compound>
O=C(Cc1ccc(-c2ccc(OCCN3CCOCC3)cc2)cn1)NCc1ccccc1 [TIRBANIBULIN]

>  <Kd>
> 30 µM (inactive)

$$$$
>  <compound>
O=C(Nc1c[nH]nc1-c1nc2cc(CN3CCOCC3)ccc2[nH]1)NC1CC1 [AT-9283]

>  <Kd>
> 30 µM (inactive)

$$$$
>  <compound>
CCCCCCCCCCCCCCCCCCOP(=O)([O-])OC1CC[N+](C)(C)CC1 [PERIFOSINE]

>  <Kd>
> 30 µM (inactive)

$$$$

---

# systemUnderTest: Rho-associated protein kinase 2 (Homo sapiens, UniProt O75116); note: in the data inactive means no Kd found up to 30 µM
# Sequence (O75116 whole entry): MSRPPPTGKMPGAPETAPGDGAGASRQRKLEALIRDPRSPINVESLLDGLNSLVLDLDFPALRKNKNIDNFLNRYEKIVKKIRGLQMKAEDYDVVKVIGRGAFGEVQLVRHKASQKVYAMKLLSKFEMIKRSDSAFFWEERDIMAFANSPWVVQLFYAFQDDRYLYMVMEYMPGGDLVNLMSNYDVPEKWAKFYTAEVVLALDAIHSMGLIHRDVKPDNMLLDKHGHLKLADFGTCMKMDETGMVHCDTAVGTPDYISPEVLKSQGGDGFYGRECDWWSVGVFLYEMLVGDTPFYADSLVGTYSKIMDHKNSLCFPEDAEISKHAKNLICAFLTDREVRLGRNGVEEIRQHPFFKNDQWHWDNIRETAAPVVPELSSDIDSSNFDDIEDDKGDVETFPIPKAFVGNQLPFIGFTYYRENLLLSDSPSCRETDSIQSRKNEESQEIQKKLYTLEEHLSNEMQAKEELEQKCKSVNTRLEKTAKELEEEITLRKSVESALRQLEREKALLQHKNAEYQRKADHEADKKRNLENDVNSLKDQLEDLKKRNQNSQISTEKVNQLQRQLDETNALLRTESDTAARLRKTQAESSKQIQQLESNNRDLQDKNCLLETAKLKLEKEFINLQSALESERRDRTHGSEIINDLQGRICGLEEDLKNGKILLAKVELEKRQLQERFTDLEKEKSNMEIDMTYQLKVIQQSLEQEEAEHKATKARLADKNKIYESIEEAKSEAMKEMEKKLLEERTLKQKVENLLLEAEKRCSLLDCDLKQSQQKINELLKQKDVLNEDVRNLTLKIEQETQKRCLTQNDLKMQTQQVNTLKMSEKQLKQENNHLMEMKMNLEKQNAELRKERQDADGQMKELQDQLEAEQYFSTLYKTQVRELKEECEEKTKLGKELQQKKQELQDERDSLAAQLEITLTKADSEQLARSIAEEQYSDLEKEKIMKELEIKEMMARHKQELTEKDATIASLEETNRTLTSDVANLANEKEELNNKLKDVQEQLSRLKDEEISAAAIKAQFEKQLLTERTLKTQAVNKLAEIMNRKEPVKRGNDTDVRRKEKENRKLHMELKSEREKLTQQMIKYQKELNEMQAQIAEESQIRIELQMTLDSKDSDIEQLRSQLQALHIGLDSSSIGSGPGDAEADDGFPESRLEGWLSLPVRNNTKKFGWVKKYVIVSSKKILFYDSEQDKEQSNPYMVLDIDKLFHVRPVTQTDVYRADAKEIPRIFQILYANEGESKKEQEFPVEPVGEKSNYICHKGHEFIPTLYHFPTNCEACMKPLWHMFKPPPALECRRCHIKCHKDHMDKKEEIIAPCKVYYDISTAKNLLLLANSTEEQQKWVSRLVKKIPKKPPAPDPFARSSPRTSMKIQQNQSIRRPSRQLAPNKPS
The source made the active and inactive calls.
Outcome codes: active, inactive

>  <entrySmiles>
C#Cc1cccc(Nc2ncnc3cc(OC)c(OCCCCCCC(=O)NO)cc23)c1

>  <class>
inactive

$$$$
>  <entrySmiles>
Cc1nc2cc(-n3ncc(C(=O)c4cc5ccccc5[nH]4)c3N)ccc2[nH]1

>  <class>
inactive

$$$$
>  <entrySmiles>
CNC(=O)c1nn(C)c2c1C(C)(C)Cc1cnc(Nc3ccc(N4CCN(C)CC4)cc3)nc1-2

>  <class>
inactive

$$$$
>  <entrySmiles>
Cn1ncc(Cl)c1-c1cc(C(=O)N[C@H](CN)Cc2ccc(F)c(F)c2)oc1Cl

>  <class>
active

$$$$
>  <entrySmiles>
CCNC(=O)C#Cc1ccc2c(c1)NC(=O)/C2=C(\Nc1ccc(CN(C)C)cc1)c1ccccc1

>  <class>
inactive

$$$$
>  <entrySmiles>
C[C@@H](NC(=O)c1ncnc(N)c1Cl)c1ncc(C(=O)Nc2cc(C(F)(F)F)c(Cl)cn2)s1

>  <class>
inactive

$$$$
>  <entrySmiles>
COc1cc2ncnc(Oc3cccc(NC(=O)Nc4cc(C(C)(C)C(F)(F)F)on4)c3)c2cc1OC

>  <class>
inactive

$$$$
>  <entrySmiles>
Cc1csc(-c2nnc(Nc3ccc(Oc4ncccc4-c4ccnc(N)n4)cc3)c3ccccc23)c1

>  <class>
inactive

$$$$

---

# systemUnderTest: TRAF2 and NCK-interacting protein kinase (Homo sapiens); note: in the data inactive means no Kd found up to 30 µM
# Sequence (Q9UKE5 whole entry): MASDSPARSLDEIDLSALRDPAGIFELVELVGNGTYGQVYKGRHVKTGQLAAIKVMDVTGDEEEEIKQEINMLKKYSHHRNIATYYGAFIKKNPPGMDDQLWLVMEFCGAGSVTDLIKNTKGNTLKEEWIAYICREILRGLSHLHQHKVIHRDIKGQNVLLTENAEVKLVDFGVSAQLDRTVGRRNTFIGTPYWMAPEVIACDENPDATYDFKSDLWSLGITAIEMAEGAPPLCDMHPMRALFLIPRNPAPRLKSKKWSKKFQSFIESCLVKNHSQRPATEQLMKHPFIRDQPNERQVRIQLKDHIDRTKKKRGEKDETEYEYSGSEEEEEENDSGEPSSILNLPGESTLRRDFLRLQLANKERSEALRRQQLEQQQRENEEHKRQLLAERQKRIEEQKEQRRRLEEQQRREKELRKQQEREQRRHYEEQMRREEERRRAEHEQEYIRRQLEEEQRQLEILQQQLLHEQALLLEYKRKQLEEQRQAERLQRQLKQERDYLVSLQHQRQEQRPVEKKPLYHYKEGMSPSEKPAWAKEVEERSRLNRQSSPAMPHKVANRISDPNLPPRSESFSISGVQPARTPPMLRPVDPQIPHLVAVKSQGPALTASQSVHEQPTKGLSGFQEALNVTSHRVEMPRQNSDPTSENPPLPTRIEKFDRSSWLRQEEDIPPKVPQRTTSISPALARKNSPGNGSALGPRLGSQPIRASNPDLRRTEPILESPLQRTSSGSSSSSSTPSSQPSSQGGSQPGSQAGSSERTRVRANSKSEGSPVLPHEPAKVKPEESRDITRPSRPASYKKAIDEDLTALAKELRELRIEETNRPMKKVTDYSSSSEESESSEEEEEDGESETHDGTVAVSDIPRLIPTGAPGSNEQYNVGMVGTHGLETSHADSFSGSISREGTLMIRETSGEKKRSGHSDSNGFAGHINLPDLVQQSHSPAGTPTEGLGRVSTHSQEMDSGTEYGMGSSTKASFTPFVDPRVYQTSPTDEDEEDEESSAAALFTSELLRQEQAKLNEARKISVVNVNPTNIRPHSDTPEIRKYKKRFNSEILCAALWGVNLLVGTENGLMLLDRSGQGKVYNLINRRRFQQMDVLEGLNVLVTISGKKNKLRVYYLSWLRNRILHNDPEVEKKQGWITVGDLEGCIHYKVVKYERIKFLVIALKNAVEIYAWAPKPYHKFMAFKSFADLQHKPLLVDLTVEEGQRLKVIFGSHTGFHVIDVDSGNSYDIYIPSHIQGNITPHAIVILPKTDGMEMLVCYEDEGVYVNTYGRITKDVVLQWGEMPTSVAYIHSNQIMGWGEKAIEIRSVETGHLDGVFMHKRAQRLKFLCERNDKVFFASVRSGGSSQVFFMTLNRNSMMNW
Activity calls are given as the source filed them.
# Kd per entry

>  <compound>
COc1c(OCCCN2CCOCC2)ccc2c1N=C(NC(=O)c1cnc(N)nc1)N1CCN=C21 [COPANLISIB]

>  <Kd>
> 30 µM (inactive)

$$$$
>  <compound>
C=CC(=O)N1CCC[C@H](n2c(=O)n(-c3ccc(Oc4ccccc4)cc3)c3c(N)ncnc32)C1

>  <Kd>
> 30 µM (inactive)

$$$$
>  <compound>
Cc1cccc(-c2nn3c(c2-c2ccnc4ccc(C(N)=O)cc24)CCC3)n1 [GALUNISERTIB]

>  <Kd>
1.21 µM

$$$$
>  <compound>
NC(=O)Nc1cc(-c2cccc(F)c2)sc1C(=O)N[C@H]1CCCNC1 [AZD-7762]

>  <Kd>
0.094 µM (active)

$$$$
>  <compound>
O=C1NC(=O)[C@@H](c2cn3c4c(cccc24)CCC3)[C@@H]1c1c[nH]c2ccccc12 [TIVANTINIB]

>  <Kd>
> 30 µM (inactive)

$$$$
>  <compound>
CC(=O)NCC(=O)N1[C@@H]2CC[C@H]1c1ccc(Nc3ncc(C(F)(F)F)c(NC4CCC4)n3)cc12 [PF-03814735]

>  <Kd>
0.746 µM (active)

$$$$
>  <compound>
FC(F)(F)c1ccc(/C=C/c2nc(COc3ccc(CCCCn4ccnn4)cc3)co2)cc1 [MUBRITINIB]

>  <Kd>
> 30 µM (inactive)

$$$$
>  <compound>
Cn1ncc(Cl)c1-c1cc(C(=O)N[C@H](CN)Cc2ccc(F)c(F)c2)oc1Cl [UPROSERTIB]

>  <Kd>
> 30 µM (inactive)

$$$$

---

# systemUnderTest: Ferrochelatase, mitochondrial (Homo sapiens); note: in the data inactive means no Kd found up to 30 µM
# Sequence (P22830 whole entry): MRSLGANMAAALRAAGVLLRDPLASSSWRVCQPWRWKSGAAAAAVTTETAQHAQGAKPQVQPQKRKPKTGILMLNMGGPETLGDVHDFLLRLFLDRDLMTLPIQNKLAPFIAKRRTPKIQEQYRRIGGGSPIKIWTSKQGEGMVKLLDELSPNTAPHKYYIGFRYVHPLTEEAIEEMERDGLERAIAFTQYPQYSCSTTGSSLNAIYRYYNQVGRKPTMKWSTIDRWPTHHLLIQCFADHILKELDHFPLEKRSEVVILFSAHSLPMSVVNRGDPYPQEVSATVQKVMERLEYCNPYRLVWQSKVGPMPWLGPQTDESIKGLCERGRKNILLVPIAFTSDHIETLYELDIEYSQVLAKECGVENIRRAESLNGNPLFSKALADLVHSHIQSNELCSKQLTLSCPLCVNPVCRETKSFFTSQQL
Structures can show the parent of a compound that is named as a salt. Calls of active or inactive are those of the source.
Possible outcomes: Y = active, N = inactive

>  <compound>
CC(=O)NCC(=O)N1[C@@H]2CC[C@H]1c1ccc(Nc3ncc(C(F)(F)F)c(NC4CCC4)n3)cc12 [PF-03814735]

>  <systemUnderTest>
Ferrochelatase, mitochondrial (Homo sapiens); note: in the data inactive means no Kd found up to 30 µM

>  <class>
N

$$$$
>  <compound>
N#CC1(c2ccc(NC(=O)c3cccnc3NCc3ccncc3)cc2)CCCC1 [RIVOCERANIB]

>  <systemUnderTest>
Ferrochelatase, mitochondrial (Homo sapiens); note: in the data inactive means no Kd found up to 30 µM

>  <class>
N

$$$$
>  <compound>
Cn1ncc(Cl)c1-c1cc(C(=O)N[C@H](CN)Cc2ccc(F)c(F)c2)oc1Cl [UPROSERTIB]

>  <systemUnderTest>
Ferrochelatase, mitochondrial (Homo sapiens); note: in the data inactive means no Kd found up to 30 µM

>  <class>
N

$$$$
>  <compound>
CCS(=O)(=O)N1CCN(c2ccc(Nc3ncc(C(N)=O)c(NC4CC4)n3)cc2)CC1 [Cerdulatinib Hydrochloride]

>  <systemUnderTest>
Ferrochelatase, mitochondrial (Homo sapiens); note: in the data inactive means no Kd found up to 30 µM

>  <class>
N

$$$$
>  <compound>
CC(=O)c1cnc2ccc(-c3cc(Cl)c(O)c(Cl)c3)nc2c1N[C@H]1CC[C@H](CN(C)C)CC1

>  <systemUnderTest>
Ferrochelatase, mitochondrial (Homo sapiens); note: in the data inactive means no Kd found up to 30 µM

>  <class>
Y

$$$$
>  <compound>
CCNC(=O)C#Cc1ccc2c(c1)NC(=O)/C2=C(\Nc1ccc(CN(C)C)cc1)c1ccccc1

>  <systemUnderTest>
Ferrochelatase, mitochondrial (Homo sapiens); note: in the data inactive means no Kd found up to 30 µM

>  <class>
Y

$$$$
>  <compound>
O=C(Nc1cc(C(F)(F)F)cc(C(F)(F)F)c1)c1cc(Cl)ccc1O [IMD-0354]

>  <systemUnderTest>
Ferrochelatase, mitochondrial (Homo sapiens); note: in the data inactive means no Kd found up to 30 µM

>  <class>
N

$$$$
>  <compound>
Cc1csc(-c2nnc(Nc3ccc(Oc4ncccc4-c4ccnc(N)n4)cc3)c3ccccc23)c1 [AMG-900]

>  <systemUnderTest>
Ferrochelatase, mitochondrial (Homo sapiens); note: in the data inactive means no Kd found up to 30 µM

>  <class>
N

$$$$
>  <compound>
CNC(=O)c1ccccc1Sc1ccc2c(/C=C/c3ccccn3)n[nH]c2c1 [AXITINIB]

>  <systemUnderTest>
Ferrochelatase, mitochondrial (Homo sapiens); note: in the data inactive means no Kd found up to 30 µM

>  <class>
Y

$$$$
>  <compound>
CO[C@H]1C[C@@H]2CC[C@@H](C)[C@@](O)(O2)C(=O)C(=O)N2CCCC[C@H]2C(=O)O[C@H]([C@H](C)C[C@@H]2CC[C@@H](OP(C)(C)=O)[C@H](OC)C2)CC(=O)[C@H](C)/C=C(\C)[C@@H](O)[C@@H](OC)C(=O)[C@H](C)C[C@H](C)/C=C/C=C/C=C/1C [RIDAFOROLIMUS]

>  <systemUnderTest>
Ferrochelatase, mitochondrial (Homo sapiens); note: in the data inactive means no Kd found up to 30 µM

>  <class>
N

$$$$
>  <compound>
COc1cc2c(Nc3ccc(Cl)c(Cl)c3F)ncnc2cc1OC[C@@H]1C[C@@H]2CN(C)C[C@@H]2C1 [TESEVATINIB]

>  <systemUnderTest>
Ferrochelatase, mitochondrial (Homo sapiens); note: in the data inactive means no Kd found up to 30 µM

>  <class>
N

$$$$
>  <compound>
C[C@H]1CNCCCN1S(=O)(=O)c1cccc2cncc(F)c12

>  <systemUnderTest>
Ferrochelatase, mitochondrial (Homo sapiens); note: in the data inactive means no Kd found up to 30 µM

>  <class>
N

$$$$
>  <compound>
Cn1cc(-c2cnn3c(N)c(Br)c([C@@H]4CCCNC4)nc23)cn1 [SCH-900776]

>  <systemUnderTest>
Ferrochelatase, mitochondrial (Homo sapiens); note: in the data inactive means no Kd found up to 30 µM

>  <class>
N

$$$$
>  <compound>
O=C(Cc1ccc(-c2ccc(OCCN3CCOCC3)cc2)cn1)NCc1ccccc1 [TIRBANIBULIN]

>  <systemUnderTest>
Ferrochelatase, mitochondrial (Homo sapiens); note: in the data inactive means no Kd found up to 30 µM

>  <class>
N

$$$$
>  <compound>
COc1ncc(-c2ccc3nccc(-c4ccnnc4)c3c2)cc1NS(=O)(=O)c1ccc(F)cc1F [OMIPALISIB]

>  <systemUnderTest>
Ferrochelatase, mitochondrial (Homo sapiens); note: in the data inactive means no Kd found up to 30 µM

>  <class>
N

$$$$
>  <compound>
O=C1NC(=O)[C@@H](c2cn3c4c(cccc24)CCC3)[C@@H]1c1c[nH]c2ccccc12 [TIVANTINIB]

>  <systemUnderTest>
Ferrochelatase, mitochondrial (Homo sapiens); note: in the data inactive means no Kd found up to 30 µM

>  <class>
N

$$$$
>  <compound>
CC(C)c1cc(CNc2nc(Nc3cc(C4CC4)[nH]n3)cc(N3CCN(C)CC3)n2)on1 [XL-228]

>  <systemUnderTest>
Ferrochelatase, mitochondrial (Homo sapiens); note: in the data inactive means no Kd found up to 30 µM

>  <class>
N

$$$$
>  <compound>
O=c1[nH]ccc2cc(OC3CCNCC3)ccc12 [SAR-407899 FREE BASE]

>  <systemUnderTest>
Ferrochelatase, mitochondrial (Homo sapiens); note: in the data inactive means no Kd found up to 30 µM

>  <class>
N

$$$$
>  <compound>
CNC(=O)c1cc(Oc2ccc(NC(=O)Nc3cc(C(C)(C)C)nn3-c3ccc4ncccc4c3)c(F)c2)ccn1 [REBASTINIB]

>  <systemUnderTest>
Ferrochelatase, mitochondrial (Homo sapiens); note: in the data inactive means no Kd found up to 30 µM

>  <class>
N

$$$$
>  <compound>
C#Cc1cccc(Nc2ncnc3cc(OC)c(OCCCCCCC(=O)NO)cc23)c1 [CUDC-101]

>  <systemUnderTest>
Ferrochelatase, mitochondrial (Homo sapiens); note: in the data inactive means no Kd found up to 30 µM

>  <class>
Y

$$$$
>  <compound>
NC(=O)Nc1cc(-c2cccc(F)c2)sc1C(=O)N[C@H]1CCCNC1 [AZD-7762]

>  <systemUnderTest>
Ferrochelatase, mitochondrial (Homo sapiens); note: in the data inactive means no Kd found up to 30 µM

>  <class>
N

$$$$
>  <compound>
CCS(=O)(=O)c1cccc(-c2cc(C(=O)NC3CCN(C)CC3)c(C)c3[nH]c4ncc(C)cc4c23)c1 [TAK-901]

>  <systemUnderTest>
Ferrochelatase, mitochondrial (Homo sapiens); note: in the data inactive means no Kd found up to 30 µM

>  <class>
N

$$$$
>  <compound>
CNC(=O)c1nn(C)c2c1C(C)(C)Cc1cnc(Nc3ccc(N4CCN(C)CC4)cc3)nc1-2 [MILCICLIB]

>  <systemUnderTest>
Ferrochelatase, mitochondrial (Homo sapiens); note: in the data inactive means no Kd found up to 30 µM

>  <class>
N

$$$$
>  <compound>
COc1ccc(S(=O)(=O)N(C(C)=O)c2ccccc2/C=C/c2cc[n+]([O-])cc2)cc1 [HMN-214]

>  <systemUnderTest>
Ferrochelatase, mitochondrial (Homo sapiens); note: in the data inactive means no Kd found up to 30 µM

>  <class>
N

$$$$
>  <compound>
Cn1cc(C2=C(c3cn(C4CCN(Cc5ccccn5)CC4)c4ccccc34)C(=O)NC2=O)c2ccccc21 [ENZASTAURIN]

>  <systemUnderTest>
Ferrochelatase, mitochondrial (Homo sapiens); note: in the data inactive means no Kd found up to 30 µM

>  <class>
N

$$$$
>  <compound>
O=C(Nc1c[nH]nc1-c1nc2cc(CN3CCOCC3)ccc2[nH]1)NC1CC1 [AT-9283]

>  <systemUnderTest>
Ferrochelatase, mitochondrial (Homo sapiens); note: in the data inactive means no Kd found up to 30 µM

>  <class>
N

$$$$
>  <compound>
COCc1c(-c2ccc(NC(=O)Nc3cc(C(F)(F)F)ccc3F)c(F)c2)c2c(N)ncnn2c1CN1CCOCC1

>  <systemUnderTest>
Ferrochelatase, mitochondrial (Homo sapiens); note: in the data inactive means no Kd found up to 30 µM

>  <class>
N

$$$$
>  <compound>
Cc1cccc(-c2nn3c(c2-c2ccnc4ccc(C(N)=O)cc24)CCC3)n1 [GALUNISERTIB]

>  <systemUnderTest>
Ferrochelatase, mitochondrial (Homo sapiens); note: in the data inactive means no Kd found up to 30 µM

>  <class>
N

$$$$
>  <compound>
O=C(Nc1nc2cccc(-c3ccc(CN4CCS(=O)(=O)CC4)cc3)n2n1)C1CC1 [FILGOTINIB]

>  <systemUnderTest>
Ferrochelatase, mitochondrial (Homo sapiens); note: in the data inactive means no Kd found up to 30 µM

>  <class>
N

$$$$
>  <compound>
CN1CCN(CCOc2cc(OC3CCOCC3)c3c(Nc4c(Cl)ccc5c4OCO5)ncnc3c2)CC1 [SARACATINIB]

>  <systemUnderTest>
Ferrochelatase, mitochondrial (Homo sapiens); note: in the data inactive means no Kd found up to 30 µM

>  <class>
N

$$$$
>  <compound>
FC(F)(F)c1ccc(/C=C/c2nc(COc3ccc(CCCCn4ccnn4)cc3)co2)cc1 [MUBRITINIB]

>  <systemUnderTest>
Ferrochelatase, mitochondrial (Homo sapiens); note: in the data inactive means no Kd found up to 30 µM

>  <class>
N

$$$$
